Biological target: Hmlalpha2 (UniProt P0CY09)
Sequence: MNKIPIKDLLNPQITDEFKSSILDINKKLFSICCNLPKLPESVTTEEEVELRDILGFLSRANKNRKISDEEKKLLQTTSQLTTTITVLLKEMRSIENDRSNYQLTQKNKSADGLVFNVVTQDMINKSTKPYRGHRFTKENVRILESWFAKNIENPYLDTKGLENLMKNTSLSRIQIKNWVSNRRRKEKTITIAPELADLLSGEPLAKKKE
Assay: PBM E-score (8-mer binding enrichment) (E-score (-0.5 to 0.5)); higher = stronger / more preferred TF binding
Conditions: protein concentration: 200 nM; construct: GST-full length
In all, about 33,000 sequences were measured (“E-score (-0.5 to 0.5)”: median about -0.04, highest 2% from about 0.36 on). The list comes from a sample in which the highest values are over-represented; it also holds close analogues and randomly drawn sequences.
PBM E-score values, listed per item
Could you respond with only the numeric value?

Look over these answered cases.
The recorded PBM E-score for GGTATGTA is 0.4

Lab note: CGCGTGTC gave PBM E-score of 0.262

PBM E-score recorded for this sequence, TGTACACA , is 0.418

Form field PBM E-score, entry AACACGCC : 0.359

In plain terms, CATTTACC has a documented PBM E-score of 0.144

Next:
Record CGCGTGCA , field PBM E-score: -0.0161
